Items are presented alongside their recorded pIC50.
# assayed_target: Cathepsin K (Homo sapiens)
# Sequence (P43235 whole entry): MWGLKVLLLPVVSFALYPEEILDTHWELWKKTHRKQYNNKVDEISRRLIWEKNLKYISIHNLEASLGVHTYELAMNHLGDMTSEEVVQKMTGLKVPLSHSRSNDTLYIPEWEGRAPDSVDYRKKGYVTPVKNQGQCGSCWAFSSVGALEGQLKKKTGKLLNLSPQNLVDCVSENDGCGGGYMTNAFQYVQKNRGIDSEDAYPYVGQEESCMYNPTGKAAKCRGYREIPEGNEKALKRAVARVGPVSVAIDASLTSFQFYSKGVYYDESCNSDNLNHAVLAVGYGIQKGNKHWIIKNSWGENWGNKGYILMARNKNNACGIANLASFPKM
# protocol_notes: Inhibition of recombinant human cathepsin K in fluorescence assay
pIC50: −log10 of the molar value.

{"columns": ["compound_structure_string", "assayed_target", "bound_sign", "pIC50"],
 "data": [
  ["CCCc1ccc(C(=O)N[C@@H](CC(C)C)C(=O)NCCNc2ccc(OC)cc2)cc1", "Cathepsin K (Homo sapiens)", ">", 8.52],
  ["COc1ccc(NCCNC(=O)[C@H](CC(C)C)NC(=O)c2ncn(-c3ccccc3Cl)n2)cc1", "Cathepsin K (Homo sapiens)", "=", 8.22],
  ["COc1ccc(NCCNC(=O)[C@H](CC(C)C)NC(=O)c2ncn(-c3cccc(Cl)c3Cl)n2)cc1", "Cathepsin K (Homo sapiens)", "=", 8.05],
  ["COc1ccc(NCCNC(=O)[C@H](CC(C)C)NC(=O)c2ccc(C(C)C)cn2)cc1", "Cathepsin K (Homo sapiens)", ">", 8.52],
  ["COc1ccc(NCCNC(=O)[C@H](CC(C)C)NC(=O)c2ccc(C(C)C)cc2)cc1", "Cathepsin K (Homo sapiens)", ">", 8.52],
  ["COc1ccc(NCCNC(=O)[C@H](CC(C)C)NC(=O)c2ccc(OCc3ccccc3)cc2)cc1", "Cathepsin K (Homo sapiens)", "=", 8.22]
]}

====

# assayed_target: Cathepsin S (Homo sapiens)
# Sequence (P25774 whole entry): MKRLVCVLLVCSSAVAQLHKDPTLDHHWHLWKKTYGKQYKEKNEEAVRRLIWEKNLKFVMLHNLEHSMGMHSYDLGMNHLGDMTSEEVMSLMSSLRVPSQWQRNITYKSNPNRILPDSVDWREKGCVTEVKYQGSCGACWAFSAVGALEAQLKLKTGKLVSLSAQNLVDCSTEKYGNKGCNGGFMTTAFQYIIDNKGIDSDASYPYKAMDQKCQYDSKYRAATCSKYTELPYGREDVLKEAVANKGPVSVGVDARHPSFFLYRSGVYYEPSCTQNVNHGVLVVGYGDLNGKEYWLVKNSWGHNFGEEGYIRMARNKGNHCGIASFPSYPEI
# protocol_notes: Inhibition of recombinant human cathepsin S in a fluorescence assay
pIC50: −log10 of the molar value.
Items are presented alongside their recorded pIC50.

{"columns": ["compound_structure_string", "pIC50"],
 "data": [
  ["COc1ccc(NCCNC(=O)[C@H](CC(C)C)NC(=O)c2ncn(-c3cccc(Cl)c3Cl)n2)cc1", 6.72],
  ["COc1ccc(NCCNC(=O)[C@H](CC(C)C)NC(=O)c2ccc(C(C)C)cn2)cc1", 5.14],
  ["COc1ccc(NCCNC(=O)[C@H](CC(C)C)NC(=O)c2ccc(C(C)C)cc2)cc1", 5.24],
  ["COc1ccc(NCCNC(=O)[C@H](CC(C)C)NC(=O)c2ncn(-c3ccccc3Cl)n2)cc1", 5.72],
  ["CCCc1ccc(C(=O)N[C@@H](CC(C)C)C(=O)NCCNc2ccc(OC)cc2)cc1", 5.92],
  ["COc1ccc(NCCNC(=O)[C@H](CC(C)C)NC(=O)c2ccc(OCc3ccccc3)cc2)cc1", 5.02]
]}

====

# assayed_target: Cathepsin K (Oryctolagus cuniculus)
# protocol_notes: Eq. constant (Ki) for inhibition of Cathepsin K was determined by progress curves, following hydrolysis of Z-Phe-Arg- Amc in the absence and presence of compound

{"columns": ["compound_structure_string", "Ki"],
 "data": [
  ["COc1ccc(NCCNC(=O)[C@H](CC(C)C)NC(=O)c2ncn(-c3cccc(Cl)c3Cl)n2)cc1", "11 nM"],
  ["COc1ccc(NCCNC(=O)[C@H](CC(C)C)NC(=O)c2ccc(OCc3ccccc3)cc2)cc1", "15 nM"]
]}

====

# assayed_target: Procathepsin L (Homo sapiens, UniProt P07711)
# Sequence (P07711 whole entry): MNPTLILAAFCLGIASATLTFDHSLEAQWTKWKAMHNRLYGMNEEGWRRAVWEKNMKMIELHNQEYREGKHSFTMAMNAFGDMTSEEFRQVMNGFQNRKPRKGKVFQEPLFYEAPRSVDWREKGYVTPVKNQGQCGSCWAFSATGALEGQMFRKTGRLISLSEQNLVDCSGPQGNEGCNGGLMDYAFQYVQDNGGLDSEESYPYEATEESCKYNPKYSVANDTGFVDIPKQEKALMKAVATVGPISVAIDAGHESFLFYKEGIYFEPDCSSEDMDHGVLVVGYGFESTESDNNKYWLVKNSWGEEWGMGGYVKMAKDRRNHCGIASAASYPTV
# protocol_notes: Inhibition of recombinant human cathepsin L in a fluorescence assay.

{"columns": ["compound_structure_string", "assayed_target", "IC50"],
 "data": [
  ["CCCc1ccc(C(=O)N[C@@H](CC(C)C)C(=O)NCCNc2ccc(OC)cc2)cc1", "Procathepsin L (Homo sapiens, UniProt P07711)", "< 0.03 µM"],
  ["COc1ccc(NCCNC(=O)[C@H](CC(C)C)NC(=O)c2ncn(-c3cccc(Cl)c3Cl)n2)cc1", "Procathepsin L (Homo sapiens, UniProt P07711)", "> 10 µM"],
  ["COc1ccc(NCCNC(=O)[C@H](CC(C)C)NC(=O)c2ccc(OCc3ccccc3)cc2)cc1", "Procathepsin L (Homo sapiens, UniProt P07711)", "> 10 µM"]
]}
